# subject of test: UniProt P10145
# Sequence (P10145 21-99, species assumed): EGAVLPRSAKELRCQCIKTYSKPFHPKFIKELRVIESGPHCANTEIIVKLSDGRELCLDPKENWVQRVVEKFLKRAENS
# method summary: Biacore biosensor: inhibition of IL-8 binding to immobilised heparin and heparan sulfate
# test parameters: immobilised heparin; inhibitor 1.0 μM, IL-8 0.068 μM

| compound | Inhibition of binding of IL-8 (Hep) |
| --- | --- |
| O=S(=O)(O)OC1C(OS(=O)(=O)O)C(OS(=O)(=O)O)C(N(Cc2cccc(CN(C3C(OS(=O)(=O)O)C(OS(=O)(=O)O)C(OS(=O)(=O)O)C(OS(=O)(=O)O)C3OS(=O)(=O)O)C3C(OS(=O)(=O)O)C(OS(=O)(=O)O)C(OS(=O)(=O)O)C(OS(=O)(=O)O)C3OS(=O)(=O)O)c2)C2C(OS(=O)(=O)O)C(OS(=O)(=O)O)C(OS(=O)(=O)O)C(OS(=O)(=O)O)C2OS(=O)(=O)O)C(OS(=O)(=O)O)C1OS(=O)(=O)O (stereo not shown) | 71% (Hep) |
| O=S(=O)(O)OC1C=CC(N(Cc2cccc(CN(C3C=CC(OS(=O)(=O)O)C(OS(=O)(=O)O)C3OS(=O)(=O)O)C3C=CC(OS(=O)(=O)O)C(OS(=O)(=O)O)C3OS(=O)(=O)O)c2)C2C=CC(OS(=O)(=O)O)C(OS(=O)(=O)O)C2OS(=O)(=O)O)C(OS(=O)(=O)O)C1OS(=O)(=O)O (stereo not shown) | 57% (Hep) |
| O=S(=O)(O)OC1C=CC(N(CCCCCCN(C2C=CC(OS(=O)(=O)O)C(OS(=O)(=O)O)C2OS(=O)(=O)O)C2C=CC(OS(=O)(=O)O)C(OS(=O)(=O)O)C2OS(=O)(=O)O)C2C=CC(OS(=O)(=O)O)C(OS(=O)(=O)O)C2OS(=O)(=O)O)C(OS(=O)(=O)O)C1OS(=O)(=O)O (stereo not shown) | 55% (Hep) |
| O=S(=O)(O)OC1C=CC(N(Cc2ccc(CN(C3C=CC(OS(=O)(=O)O)C(OS(=O)(=O)O)C3OS(=O)(=O)O)C3C=CC(OS(=O)(=O)O)C(OS(=O)(=O)O)C3OS(=O)(=O)O)cc2)C2C=CC(OS(=O)(=O)O)C(OS(=O)(=O)O)C2OS(=O)(=O)O)C(OS(=O)(=O)O)C1OS(=O)(=O)O (stereo not shown) | 62% (Hep) |

###

# subject of test: human platelet heparanase (Homo sapiens, UniProt Q9Y251)
# Construct: 10 ng of purified human platelet heparanase; from tissue; host or cells: human platelets
# Sequence (Q9Y251 158-543 limits assumed): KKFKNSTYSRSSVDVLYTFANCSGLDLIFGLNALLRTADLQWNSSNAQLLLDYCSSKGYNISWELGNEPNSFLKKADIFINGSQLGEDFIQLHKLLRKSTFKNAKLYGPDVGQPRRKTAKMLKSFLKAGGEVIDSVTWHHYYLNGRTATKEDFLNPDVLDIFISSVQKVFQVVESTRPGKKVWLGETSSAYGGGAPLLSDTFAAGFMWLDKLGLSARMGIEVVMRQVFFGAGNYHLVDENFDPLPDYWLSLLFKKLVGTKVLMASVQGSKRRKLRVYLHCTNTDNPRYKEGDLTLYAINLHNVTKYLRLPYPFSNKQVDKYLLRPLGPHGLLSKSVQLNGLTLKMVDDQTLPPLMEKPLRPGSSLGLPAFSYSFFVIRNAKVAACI
# Sequence (Q9Y251 36-109 limits assumed): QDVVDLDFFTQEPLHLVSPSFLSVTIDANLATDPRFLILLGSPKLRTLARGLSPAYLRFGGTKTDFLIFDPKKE
# method summary: Heparanase inhibition, 3H-radiolabelled HS cleavage assay
# Assay type: biochemical
# test parameters: heparanase inhibition; read-out: EC50 (converted)

| structure | EC50 / µM |
| --- | --- |
| O=S(=O)(O)OC(CN([C@H]1C=C[C@@H](OS(=O)(=O)O)[C@@H](OS(=O)(=O)O)[C@@H]1OS(=O)(=O)O)[C@H]1C=C[C@@H](OS(=O)(=O)O)[C@@H](OS(=O)(=O)O)[C@@H]1OS(=O)(=O)O)CN([C@H]1C=C[C@@H](OS(=O)(=O)O)[C@@H](OS(=O)(=O)O)[C@@H]1OS(=O)(=O)O)[C@H]1C=C[C@@H](OS(=O)(=O)O)[C@@H](OS(=O)(=O)O)[C@@H]1OS(=O)(=O)O | 17 |

###

# subject of test: aFGF (Homo sapiens, UniProt P05230)
# Sequence (P05230 whole entry, species assumed): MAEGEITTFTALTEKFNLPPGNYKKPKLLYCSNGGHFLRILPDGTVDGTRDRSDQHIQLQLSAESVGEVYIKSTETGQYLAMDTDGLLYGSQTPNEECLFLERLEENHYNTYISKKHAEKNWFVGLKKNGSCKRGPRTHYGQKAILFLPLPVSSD
# method summary: Biacore biosensor: inhibition of aFGF binding to immobilised heparin and heparan sulfate
# test parameters: immobilised heparan sulfate; inhibitor 0.034 μM, aFGF 0.025 μM; read-out: Inhibition of binding of aFGF (HS)

| structure | inhibition at 0.034 µM |
| --- | --- |
| O=S(=O)(O)O[C@H]1[C@H](OS(=O)(=O)O)[C@@H](N(CCCCCN([C@H]2C=C[C@@H](OS(=O)(=O)O)[C@@H](OS(=O)(=O)O)[C@@H]2OS(=O)(=O)O)[C@H]2C=C[C@@H](OS(=O)(=O)O)[C@@H](OS(=O)(=O)O)[C@@H]2OS(=O)(=O)O)[C@H]2C=C[C@@H](OS(=O)(=O)O)[C@@H](OS(=O)(=O)O)[C@@H]2OS(=O)(=O)O)C=C[C@H]1OS(=O)(=O)O | 39% |
| O=S(=O)(O)OC(CN([C@H]1C=C[C@@H](OS(=O)(=O)O)[C@@H](OS(=O)(=O)O)[C@@H]1OS(=O)(=O)O)[C@H]1C=C[C@@H](OS(=O)(=O)O)[C@@H](OS(=O)(=O)O)[C@@H]1OS(=O)(=O)O)CN([C@H]1C=C[C@@H](OS(=O)(=O)O)[C@@H](OS(=O)(=O)O)[C@@H]1OS(=O)(=O)O)[C@H]1C=C[C@@H](OS(=O)(=O)O)[C@@H](OS(=O)(=O)O)[C@@H]1OS(=O)(=O)O | 47% |
| O=S(=O)(O)O[C@H]1[C@H](OS(=O)(=O)O)[C@@H](N(CCCCCCCN([C@H]2C=C[C@@H](OS(=O)(=O)O)[C@@H](OS(=O)(=O)O)[C@@H]2OS(=O)(=O)O)[C@H]2C=C[C@@H](OS(=O)(=O)O)[C@@H](OS(=O)(=O)O)[C@@H]2OS(=O)(=O)O)[C@H]2C=C[C@@H](OS(=O)(=O)O)[C@@H](OS(=O)(=O)O)[C@@H]2OS(=O)(=O)O)C=C[C@H]1OS(=O)(=O)O | 30% |
| O=S(=O)(O)O[C@H]1[C@H](OS(=O)(=O)O)[C@@H](N(CCCCCCCCCN([C@H]2C=C[C@@H](OS(=O)(=O)O)[C@@H](OS(=O)(=O)O)[C@@H]2OS(=O)(=O)O)[C@H]2C=C[C@@H](OS(=O)(=O)O)[C@@H](OS(=O)(=O)O)[C@@H]2OS(=O)(=O)O)[C@H]2C=C[C@@H](OS(=O)(=O)O)[C@@H](OS(=O)(=O)O)[C@@H]2OS(=O)(=O)O)C=C[C@H]1OS(=O)(=O)O | 31% |
| O=S(=O)(O)O[C@H]1[C@H](OS(=O)(=O)O)[C@@H](N(CCCCCCCCN([C@H]2C=C[C@@H](OS(=O)(=O)O)[C@@H](OS(=O)(=O)O)[C@@H]2OS(=O)(=O)O)[C@H]2C=C[C@@H](OS(=O)(=O)O)[C@@H](OS(=O)(=O)O)[C@@H]2OS(=O)(=O)O)[C@H]2C=C[C@@H](OS(=O)(=O)O)[C@@H](OS(=O)(=O)O)[C@@H]2OS(=O)(=O)O)C=C[C@H]1OS(=O)(=O)O | 28% |
| O=S(=O)(O)O[C@H]1[C@H](OS(=O)(=O)O)[C@@H](N(CCCN([C@H]2C=C[C@@H](OS(=O)(=O)O)[C@@H](OS(=O)(=O)O)[C@@H]2OS(=O)(=O)O)[C@H]2C=C[C@@H](OS(=O)(=O)O)[C@@H](OS(=O)(=O)O)[C@@H]2OS(=O)(=O)O)[C@H]2C=C[C@@H](OS(=O)(=O)O)[C@@H](OS(=O)(=O)O)[C@@H]2OS(=O)(=O)O)C=C[C@H]1OS(=O)(=O)O | 73% |
| O=S(=O)(O)O[C@H]1[C@H](OS(=O)(=O)O)[C@@H](N(CCN([C@H]2C=C[C@@H](OS(=O)(=O)O)[C@@H](OS(=O)(=O)O)[C@@H]2OS(=O)(=O)O)[C@H]2C=C[C@@H](OS(=O)(=O)O)[C@@H](OS(=O)(=O)O)[C@@H]2OS(=O)(=O)O)[C@H]2C=C[C@@H](OS(=O)(=O)O)[C@@H](OS(=O)(=O)O)[C@@H]2OS(=O)(=O)O)C=C[C@H]1OS(=O)(=O)O | 68% |
| O=S(=O)(O)O[C@H]1[C@H](OS(=O)(=O)O)[C@@H](N(CCCCCCCCCCN([C@H]2C=C[C@@H](OS(=O)(=O)O)[C@@H](OS(=O)(=O)O)[C@@H]2OS(=O)(=O)O)[C@H]2C=C[C@@H](OS(=O)(=O)O)[C@@H](OS(=O)(=O)O)[C@@H]2OS(=O)(=O)O)[C@H]2C=C[C@@H](OS(=O)(=O)O)[C@@H](OS(=O)(=O)O)[C@@H]2OS(=O)(=O)O)C=C[C@H]1OS(=O)(=O)O | 21% |
| O=S(=O)(O)O[C@H]1[C@H](OS(=O)(=O)O)[C@@H](N(CCCCN([C@H]2C=C[C@@H](OS(=O)(=O)O)[C@@H](OS(=O)(=O)O)[C@@H]2OS(=O)(=O)O)[C@H]2C=C[C@@H](OS(=O)(=O)O)[C@@H](OS(=O)(=O)O)[C@@H]2OS(=O)(=O)O)[C@H]2C=C[C@@H](OS(=O)(=O)O)[C@@H](OS(=O)(=O)O)[C@@H]2OS(=O)(=O)O)C=C[C@H]1OS(=O)(=O)O | 43% |
